assay.method.text: Human clinical biocomparison study: oral absorption from grazoprevir and Formulation 3 with and without pH-raising medication
experimental.context: in vivo, Treatment 1: grazoprevir and Formulation 3 without pH-raising medication, 100 mg grazoprevir/50 mg Compound I, healthy subjects
reported.property: Cmax (nM)
Numbers only, in nM.

Input line: # input molecule: `COC(=O)N[C@H](C(=O)N1CCC[C@H]1c1nc(-c2ccc3c(c2)O[C@@H](c2ccccc2)n2c-3cc3cc(-c4c[nH]c([C@@H]5CCCN5C(=O)[C@@H](NC(=O)OC)C(C)C)n4)ccc32)c[nH]1)C(C)C` ; wanted: its Cmax
Output line: 102

----------
assay.method.text: Human clinical biocomparison study: oral absorption of Formulation 1 with and without pH-raising medication
experimental.context: in vivo, 100 mg, Treatment 2: Formulation 1 with pH-raising medication, healthy subjects
reported.property: AUC(0-inf) (µM·h)
Answers are plain numbers, in µM·h.

Input line: # input molecule: `COC(=O)N[C@H](C(=O)N1CCC[C@H]1c1nc(-c2ccc3c(c2)O[C@@H](c2ccccc2)n2c-3cc3cc(-c4c[nH]c([C@@H]5CCCN5C(=O)[C@@H](NC(=O)OC)C(C)C)n4)ccc32)c[nH]1)C(C)C` ; wanted: its AUC(0-inf)
Output line: 1.57
